molecular target: Tyrosine-protein phosphatase non-receptor type 22 (Homo sapiens, UniProt Q9Y2R2)
Sequence (Q9Y2R2 whole entry): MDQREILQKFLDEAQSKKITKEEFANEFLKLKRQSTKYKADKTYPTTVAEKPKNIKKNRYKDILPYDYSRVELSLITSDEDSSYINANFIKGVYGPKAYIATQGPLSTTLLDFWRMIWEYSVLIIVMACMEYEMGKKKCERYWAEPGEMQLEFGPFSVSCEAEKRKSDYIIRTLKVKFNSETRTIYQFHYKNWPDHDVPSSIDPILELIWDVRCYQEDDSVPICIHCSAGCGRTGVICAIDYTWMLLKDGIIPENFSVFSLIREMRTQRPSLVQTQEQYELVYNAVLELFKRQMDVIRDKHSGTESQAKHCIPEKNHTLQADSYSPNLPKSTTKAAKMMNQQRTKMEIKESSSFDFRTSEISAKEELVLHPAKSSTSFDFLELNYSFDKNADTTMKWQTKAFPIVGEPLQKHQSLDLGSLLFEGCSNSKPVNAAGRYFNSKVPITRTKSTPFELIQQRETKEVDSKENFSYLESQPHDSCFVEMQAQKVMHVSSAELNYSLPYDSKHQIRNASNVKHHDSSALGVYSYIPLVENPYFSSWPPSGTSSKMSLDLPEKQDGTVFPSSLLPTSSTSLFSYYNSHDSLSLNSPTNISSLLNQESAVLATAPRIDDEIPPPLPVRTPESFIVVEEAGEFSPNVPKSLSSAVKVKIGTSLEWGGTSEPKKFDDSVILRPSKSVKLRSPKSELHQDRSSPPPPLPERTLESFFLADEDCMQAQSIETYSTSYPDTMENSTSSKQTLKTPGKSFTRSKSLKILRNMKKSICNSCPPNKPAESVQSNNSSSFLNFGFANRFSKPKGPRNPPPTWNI

test.smiles | value.qualifier | IC50 [µM]
O=C(O)c1cc2c(CCc3ccc(OC(F)(F)F)cc3)c(-c3ccccc3)oc2cc1O | = | 4.1
O=C(O)c1cc2c(C#CCO)c(-c3ccccc3)oc2cc1O | > | 100
C#Cc1c(-c2ccccc2)oc2cc(O)c(C(=O)O)cc12 | = | 50
O=C(O)c1cc2c(/C=C\c3cc(F)cc(F)c3)c(-c3ccccc3)oc2cc1O | = | 3.7
O=C(O)c1cc2c(CCc3ccc(Oc4ccccc4)cc3)c(-c3ccccc3)oc2cc1O | = | 2.2
C[C@]12CCC(=O)C=C1CC[C@@H]1[C@@H]2CC[C@@]2(C)[C@H]1CC[C@]2(O)C#Cc1c(-c2ccccc2)oc2cc(O)c(C(=O)O)cc12 | = | 12.2
O=C(O)c1cc2c(CCc3cccc(C(F)(F)F)c3)c(-c3ccccc3)oc2cc1O | = | 3.5
O=C(O)c1cc2c(/C=C\c3ccc(OC(F)(F)F)cc3)c(-c3ccccc3)oc2cc1O | = | 4.3
